Tested on: HeLa MZ
Assay Notes: whole-cell filipin (free cholesterol) integrated intensity, Z-score; higher = more cholesterol staining
Condition Label: compound concentration in added solution (µM; 5 µl added to 20 µl cells): 10; 18 h
Where a name gives a salt, the structure may show the parent alone.
Record form. Attribute: whole-cell filipin (z-score). Fill in for each entry.

Sample answers from the record:
>  <Compound>
CC(c1cc2ccccc2s1)N(O)C(N)=O (stereo not given)

>  <whole-cell filipin (z-score)>
-0.366

$$$$
>  <Compound>
CC(C(=O)O)c1ccc(C(=O)c2cccs2)cc1 (stereo not given)

>  <whole-cell filipin (z-score)>
0.84

$$$$
>  <Compound>
CC(C)NCC(O)c1cc(O)cc(O)c1 (stereo not given) [Metaproterenol sulfate, orciprenaline sulfate]

>  <whole-cell filipin (z-score)>
-0.375

$$$$
>  <Compound>
CC1CNc2c(cccc2S(=O)(=O)N[C@@H](CCCNC(=N)N)C(=O)N2CC[C@@H](C)C[C@@H]2C(=O)O)C1 (stereo not given in full)

>  <whole-cell filipin (z-score)>
0.346

$$$$
>  <Compound>
CC(NCCC(c1ccccc1)c1ccccc1)c1ccccc1 (stereo not given) [Fendiline hydrochloride]

>  <whole-cell filipin (z-score)>
0.948

$$$$

Hey, quick one: what's whole-cell filipin (z-score) for each of these?
1. COC(=O)C1=C(C)NC(C)=C(C(=O)OCC(C)C)C1c1ccccc1[N+](=O)[O-] (stereo not given)
2. Cn1cnc2c1c(=O)[nH]c(=O)n2C
3. O=C(NCC1CCCCN1)c1cc(OCC(F)(F)F)ccc1OCC(F)(F)F (stereo not given) [Flecainide acetate]
4. Clc1ccc(Nc2nnc(Cc3ccncc3)c3ccccc23)cc1
5. CCCOc1ccc(C(=O)OCCN(CC)CC)cc1N [Proparacaine hydrochloride]
6. C[C@]12CCC(=O)C=C1C=C[C@@H]1[C@@H]2CC[C@@]2(C)[C@H]1CC[C@@]21CCC(=O)O1

Resp:
[0.224, -0.586, 0.76, -0.477, -0.271, 1.37]

// input: 7 compounds below; output: whole-cell filipin (z-score) for each
1. CCCCc1cc2ccccc2c(OCCN(C)C)n1 [Dimethisoquin hydrochloride]
2. CN(C)CCN1C(=O)c2ccccc2N(C)c2ccccc21 [Dibenzepine hydrochloride]
3. Cc1onc(-c2ccccc2Cl)c1C(=O)N[C@@H]1C(=O)N2[C@@H]1SC(C)(C)[C@@H]2C(=O)O [Cloxacillin sodium salt]
4. O=c1[nH]c(=O)n([C@H]2C[C@H](O)[C@@H](CO)O2)cc1C(F)(F)F
5. CNCCC(Oc1ccc(C(F)(F)F)cc1)c1ccccc1 (stereo not given) [Fluoxetine hydrochloride]
6. CC(=O)Oc1ccccc1C(=O)Oc1ccccc1C(=O)O
7. OCc1cc(C(O)CNCCCCCCOCCCCc2ccccc2)ccc1O (stereo not given)

Resp:
[0.247, -0.7, -0.277, 3.8, -0.115, -0.226, 2.48]

# batch size: 3; output whole-cell filipin (z-score) per entry
1. CC(=O)Nc1ccc(O)cc1
2. CCc1cc(C(N)=S)ccn1 [Ethionamide]
3. CCN(CC)CCOCCOC(=O)C1(c2ccccc2)CCCC1 [Carbetapentane citrate]

Resp:
[-0.518, 0.221, 0.39]

Count: 5. Required value per item: whole-cell filipin (z-score).
1. Cc1ccc(S(=O)(=O)NC(=O)NN2CC3CCCC3C2)cc1 (stereo not given) [Gliclazide]
2. CC1=C(/C=C/C(C)=C/C=C/C(C)=C\C(=O)O)C(C)(C)CCC1
3. CN1CCCC(CC2c3ccccc3Sc3ccccc32)C1 (stereo not given) [Metixene hydrochloride]
4. N[C@@H](C(=O)N[C@@H]1C(=O)N2C(C(=O)O)=C(Cl)CC[C@H]12)c1ccccc1
5. COc1ccc(CC(C)NCC(O)c2ccc(O)c(NC=O)c2)cc1 (stereo not given) [Formoterol fumarate]

Resp:
1. -0.679
2. -0.961
3. -0.563
4. -0.304
5. -0.609
